Measured EC50, listed per entry.
- target-desc: GIPR (Homo sapiens, UniProt P48546)
- Construct: expressed in transfected cells; host or cells: HEK293 (pcDNA3.1, G418-selected single clone)
- Sequence (P48546 22-466, species assumed): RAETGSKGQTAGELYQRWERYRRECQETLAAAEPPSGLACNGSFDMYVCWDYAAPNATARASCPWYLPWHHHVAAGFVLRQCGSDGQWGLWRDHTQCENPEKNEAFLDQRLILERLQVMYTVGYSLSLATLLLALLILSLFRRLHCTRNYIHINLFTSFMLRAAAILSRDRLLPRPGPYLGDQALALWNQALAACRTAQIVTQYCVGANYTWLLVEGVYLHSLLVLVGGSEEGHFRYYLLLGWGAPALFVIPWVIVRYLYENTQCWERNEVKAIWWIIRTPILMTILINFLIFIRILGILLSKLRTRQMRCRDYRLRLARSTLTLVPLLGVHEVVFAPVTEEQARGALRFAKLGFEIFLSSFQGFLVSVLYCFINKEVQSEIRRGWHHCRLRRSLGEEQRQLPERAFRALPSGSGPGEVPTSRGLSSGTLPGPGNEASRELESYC
- procedure-details: cAMP assay, in vitro activity of polypeptides, HEK293-GIPR cells
- Type: cell-based
- condition-notes: read-out: Ec50(nM) of the peptide GIPR
Where no end group is shown, it is not given here.
readout-type: EC50 (nM)

• YSEGTFTSDYSILLDKKAQQDFIEWLLAGGPSSGAPPPS [CG136] = 0.05
• YSEGTFTSDYSILLDKIAQQEFIEWLIAGGPSSGAPPPS [CG135] = 0.015
• YSEGTFTSDYSILLDKIAQREFVQWLIAGGPSSGAPPPS [CG124] = 0.041
• YSEGTFTSDYSILLDKIAQRAFVQWLIAGGPSSGAPPPS [CG125] = 0.073
• YSEGTFTSDYSILLDKIAQREFVQWLLAGGPSSGAPPPS [CG123] = 0.044
• YSEGTFTSDYSILLDKKAQRDFIEWLLAGGPSSGAPPPS [CG127] = 0.084
• YSEGTFTSDYSILLDKIAQREFIEWLLAGGPSSGAPPPS [CG115] = 0.005
• YSEGTFTSDYSILLDKIAQQDFVEWLLAGGPSSGAPPPS [CG133] = 0.017
• YSEGTFTSDYSILLDKIAQQEFIEWLLAGGPSSGAPPPS [CG134] = 0.012
• YSEGTFTSDYSILLDKKAQQDFIEWLIAGGPSSGAPPPS [CG137] = 0.061
